Below is a list of entries, each paired with its recorded growth value.
Test system: RXF 393 renal
Assay: NCI-60 one-dose screen, 48 h (100 = growth as untreated, 0 = no growth, -100 = all killed)
Settings: 10 µM unless noted
This is part of a sample that, as a whole, favours compounds with a hit. Of some 83,000 tested, about 20% had one in any assay. Activity calls are given as the source filed them. Rule for the calls: active = growth percent below 10; inactive = the rest.

structure_string: Cn1cc(-c2nc(-c3cn(C)c4ncccc34)cs2)c2cc(F)ccc21
growth: 30.8% (inactive)
//
structure_string: COC(=O)[C@]12CC[C@@H](C)[C@H](C)[C@@H]1C1=CC(=O)[C@@H]3[C@@]4(C)C[C@@H](O)[C@H](O)[C@@]5(C)COC(=C45)C[C@@]3(C)[C@]1(C)CC2
growth: 63.1% (inactive)
//
structure_string: COc1ccc(-c2n[nH]nc2-c2cc3ccccc3s2)cc1O
growth: 16.4% (inactive)
//
structure_string: N#C/C(=C\c1ccc(-c2ccc(F)cc2)o1)c1nc(-c2ccco2)cs1
growth: 116% (inactive)
//
structure_string: O=C1/C(=C\C(Cl)=C/c2ccc([N+](=O)[O-])cc2)SC(=S)N1CCc1ccc(O)cc1
growth: -72.5% (active)

Attention now shifts to the item below.
Problem: Which growth value belongs to COCCNC1=C(Cl)C(=O)c2ccccc2C1=O ?
Solution: 105% (inactive)

Where these numbers come from: PubChem BioAssay (NCI)
